target: PvG6PD (Plasmodium vivax); experiment: PvG6PD enzyme inhibition assay (NADPH formation, absorbance 340 nm / fluorescence); type: biochemical
MEASUREMENT_NAME: IC50 (µM)
One number for each entry, in µM.

O=C(O)C(Cl)(C=C(Cl)Cl)[N+](=O)[O-] (stereo not drawn) [10 (vz1204)]: 23.5

The record that follows has no IC50 shown yet.
The recorded IC50 for N#CC(Br)c1ncccc1Cl (stereo not drawn) [4 (vz1732)] is 0.2

###

Molecular target: PfGluPho (Plasmodium falciparum)
Construct: made in house
Sequence (Q8IKU0 1-910): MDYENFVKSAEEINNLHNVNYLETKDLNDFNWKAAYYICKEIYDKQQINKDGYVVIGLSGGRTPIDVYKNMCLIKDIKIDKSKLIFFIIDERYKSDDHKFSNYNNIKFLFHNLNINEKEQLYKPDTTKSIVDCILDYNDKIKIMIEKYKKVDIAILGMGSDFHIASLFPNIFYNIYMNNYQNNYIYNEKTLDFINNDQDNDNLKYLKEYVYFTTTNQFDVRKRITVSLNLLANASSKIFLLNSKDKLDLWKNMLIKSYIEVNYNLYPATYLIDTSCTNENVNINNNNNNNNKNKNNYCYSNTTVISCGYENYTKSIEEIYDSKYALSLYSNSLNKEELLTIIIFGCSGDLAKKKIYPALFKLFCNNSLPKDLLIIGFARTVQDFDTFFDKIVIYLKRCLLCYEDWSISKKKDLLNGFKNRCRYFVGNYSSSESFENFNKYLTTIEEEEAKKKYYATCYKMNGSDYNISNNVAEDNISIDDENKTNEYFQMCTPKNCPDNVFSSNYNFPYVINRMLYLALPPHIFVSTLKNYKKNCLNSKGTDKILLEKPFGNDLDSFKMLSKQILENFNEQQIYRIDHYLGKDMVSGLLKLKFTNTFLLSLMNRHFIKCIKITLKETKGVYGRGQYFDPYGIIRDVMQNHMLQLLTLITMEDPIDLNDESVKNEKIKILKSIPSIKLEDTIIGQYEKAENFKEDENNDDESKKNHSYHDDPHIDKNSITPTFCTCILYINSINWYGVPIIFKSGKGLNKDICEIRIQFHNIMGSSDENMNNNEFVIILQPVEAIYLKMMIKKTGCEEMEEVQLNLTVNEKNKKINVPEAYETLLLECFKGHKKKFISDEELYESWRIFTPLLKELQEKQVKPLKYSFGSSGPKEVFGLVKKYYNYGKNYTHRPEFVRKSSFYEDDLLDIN
Test: PfGluPho G6PD activity inhibition assay
Type: biochemical
Details: mean ± SD, at least two independent determinations, different enzyme batches; read-out: IC50 on PfGluPho
MEASUREMENT_NAME: IC50 (µM)
Numbers only, in µM.

Worked examples, 3 compounds total:
ClC=C(n1nnc2ccccc21)n1nnc2ccccc21 [8 (vz0882)]: 18.1
O=CC(Cl)=C(I)I [13 (vz0288)]: 29.6
N#CC(Br)c1ncccn1 (centres unmarked) [2 (vz1731)]: 11.7

The record that follows has no IC50 shown yet.
So the reported IC50 for N#CC(Br)c1ncccc1Cl (centres unmarked) [4 (vz1732)] , on PfGluPho (Plasmodium falciparum), turned out to be 0.9

###

Target: PvG6PD (Plasmodium vivax, UniProt A5K3M1)
Sequence (A5K3M1 entry or part of it): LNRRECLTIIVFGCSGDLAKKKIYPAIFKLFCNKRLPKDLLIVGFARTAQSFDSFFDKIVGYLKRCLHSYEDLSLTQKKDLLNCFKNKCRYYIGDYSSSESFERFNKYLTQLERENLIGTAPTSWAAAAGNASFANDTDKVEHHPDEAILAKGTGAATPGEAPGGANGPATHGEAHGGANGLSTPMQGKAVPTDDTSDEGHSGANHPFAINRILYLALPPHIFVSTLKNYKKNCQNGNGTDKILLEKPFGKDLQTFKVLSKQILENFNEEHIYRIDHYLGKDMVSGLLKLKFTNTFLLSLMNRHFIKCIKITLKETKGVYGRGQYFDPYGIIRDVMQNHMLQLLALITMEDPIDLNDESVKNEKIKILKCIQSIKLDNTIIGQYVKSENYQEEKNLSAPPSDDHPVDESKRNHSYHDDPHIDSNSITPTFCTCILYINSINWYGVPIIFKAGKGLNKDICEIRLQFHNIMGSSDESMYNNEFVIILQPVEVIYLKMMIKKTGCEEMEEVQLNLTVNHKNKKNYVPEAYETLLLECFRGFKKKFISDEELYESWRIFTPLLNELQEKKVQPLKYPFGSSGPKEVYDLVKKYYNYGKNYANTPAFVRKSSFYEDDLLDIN
Assay: PvG6PD enzyme inhibition assay (NADPH formation, absorbance 340 nm / fluorescence)
Type: biochemical
Conditions: competitive towards G6P; read-out: Ki on PvG6PD towards G6P
Experimental: The G6PD activity of PfGluPho variants was measured spectrophotometrically as described for the wt enzyme. […] In brief, the initial reduction of NADP^+ to NADPH by PvG6PD was monitored by measuring the absorbance at 340 nm. […] The KM for NADP^+ was determined by titrating NADP^+ from 2 to 400 µM at 800 µM G6P; the KM for G6P was measured accordingly by titrating G6P from 2 to 1200 µM at 200 µM NADP^+. KM values were calculated using GraphPad Prism. […]
MEASUREMENT_NAME: pKi
Numbers only, as −log10 of the molar value.

So the reported pKi for CCN1CCC[C@@H]1CNC(=O)c1ccc2c(c1)NC(=O)c1cccc(C)c1S2 [ML304] , on PvG6PD (Plasmodium vivax, UniProt A5K3M1), turned out to be 6.15
